Biological target: UniProtKB Q8NER1
Sequence (Q8NER1 whole entry): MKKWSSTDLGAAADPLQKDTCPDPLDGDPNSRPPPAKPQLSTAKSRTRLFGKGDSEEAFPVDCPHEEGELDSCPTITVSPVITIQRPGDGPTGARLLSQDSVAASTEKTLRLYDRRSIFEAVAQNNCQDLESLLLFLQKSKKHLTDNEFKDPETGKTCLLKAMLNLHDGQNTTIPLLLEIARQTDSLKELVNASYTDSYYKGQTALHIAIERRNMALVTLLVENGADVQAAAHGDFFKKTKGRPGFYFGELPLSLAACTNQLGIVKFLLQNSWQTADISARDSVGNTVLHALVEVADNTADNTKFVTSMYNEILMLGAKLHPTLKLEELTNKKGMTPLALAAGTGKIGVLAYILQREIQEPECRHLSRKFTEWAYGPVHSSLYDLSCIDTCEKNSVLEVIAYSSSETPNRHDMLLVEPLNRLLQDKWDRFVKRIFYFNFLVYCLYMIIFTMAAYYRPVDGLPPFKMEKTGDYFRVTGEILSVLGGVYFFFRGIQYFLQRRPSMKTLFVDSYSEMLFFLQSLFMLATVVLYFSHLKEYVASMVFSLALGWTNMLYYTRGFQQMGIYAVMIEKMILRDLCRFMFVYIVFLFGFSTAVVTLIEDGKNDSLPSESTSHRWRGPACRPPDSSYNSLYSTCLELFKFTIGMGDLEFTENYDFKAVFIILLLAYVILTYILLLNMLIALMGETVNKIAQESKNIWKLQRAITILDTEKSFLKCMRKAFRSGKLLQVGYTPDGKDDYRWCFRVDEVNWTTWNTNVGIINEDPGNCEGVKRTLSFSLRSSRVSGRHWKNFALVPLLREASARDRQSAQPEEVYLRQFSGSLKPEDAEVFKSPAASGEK
Assay: Human VR1 antagonist assay, Ca2+ imaging, capsaicin stimulation
Settings: human VR1 expressing cells; concentration required to reduce capsaicin-evoked Ca2+ influx by 50%; capsaicin 300 nM; read-out: hVR1 IC50
readout_name: IC50 (nM)
One number for each entry, in nM.

>>> measured("CCn1ccnc1C(=O)CNC(=O)C1CC1(C)c1ccc(C(C)(C)C(F)(F)F)cc1 (stereo not shown)")
340

For every item below, please supply its IC50.
1. Cc1cccnc1C(=O)CNC(=O)C1CC1c1ccc(C(C)(C)C)c(F)c1 (stereo not shown)
2. CCn1ccnc1C(=O)CNC(=O)C1CC1c1cc(F)c(C(C)(C)C(F)(F)F)c(F)c1 (stereo not shown)
3. Cc1cccnc1C(=O)CNC(=O)C1CC1(C)c1ccc(C(C)(C)C)cc1 (stereo not shown)

[99, 69, 134]
